This collection of values is drawn from ChEMBL document CHEMBL2417469.

System: 786-0
EXPERIMENT_DESCRIPTION: Cytotoxicity against human 786-0 cells after 48 hrs by SRB assay
Type: functional
CONDITION_DESCRIPTION: 786-0, 48 h
Reported GI50 maps to class as: bottom: < 0.8 µM; middle: ≥ 0.8 µM and < 3 µM; top: ≥ 3 µM

Example entries and their recorded answers appear below.
[
  {
    "MOLECULE": "COc1cc(C2CC(c3cccc(Nc4ccnc5cc(Cl)ccc45)c3)=NN2C=O)cc(OC)c1OC (stereo unspecified)",
    "GROUP_LABEL": "middle"
  },
  {
    "MOLECULE": "COc1ccc(C2CC(c3ccc(Nc4ccnc5cc(Cl)ccc45)cc3)=NN2C=O)cc1 (stereo unspecified)",
    "GROUP_LABEL": "top"
  },
  {
    "MOLECULE": "O=CN1N=C(c2cccc(Nc3ccnc4cc(Cl)ccc34)c2)CC1c1ccc(Cl)cc1 (stereo unspecified)",
    "GROUP_LABEL": "top"
  },
  {
    "MOLECULE": "COc1cccc2c1C(=O)c1c(O)c3c(c(O)c1C2=O)C[C@@](O)(C(=O)CO)C[C@@H]3O[C@H]1C[C@H](N)[C@H](O)[C@H](C)O1 [DOXORUBICIN]",
    "GROUP_LABEL": "bottom"
  },
  {
    "MOLECULE": "CC(=O)N1N=C(c2ccc(Nc3ccnc4cc(Cl)ccc34)cc2)CC1c1ccc(Cl)cc1 (stereo unspecified)",
    "GROUP_LABEL": "top"
  },
  {
    "MOLECULE": "O=CN1N=C(c2cccc(Nc3ccnc4cc(Cl)ccc34)c2)CC1c1ccccc1 (stereo unspecified)",
    "GROUP_LABEL": "bottom"
  },
  {
    "MOLECULE": "O=CN1N=C(c2ccc(Nc3ccnc4cc(Cl)ccc34)cc2)CC1c1ccc(Cl)cc1 (stereo unspecified)",
    "GROUP_LABEL": "middle"
  },
  {
    "MOLECULE": "Cc1ccc(C2CC(c3ccc(Nc4ccnc5cc(Cl)ccc45)cc3)=NN2C=O)cc1 (stereo unspecified)",
    "GROUP_LABEL": "top"
  },
  {
    "MOLECULE": "COc1ccc(C2CC(c3cccc(Nc4ccnc5cc(Cl)ccc45)c3)=NN2C=O)cc1 (stereo unspecified)",
    "GROUP_LABEL": "bottom"
  },
  {
    "MOLECULE": "O=CN1N=C(c2ccc(Nc3ccnc4cc(Cl)ccc34)cc2)CC1c1ccccc1 (stereo unspecified)",
    "GROUP_LABEL": "top"
  }
]

From here, focus on the item given below.
Dear colleague, I would appreciate it if you could identify the bin for COc1cc(C2CC(c3ccc(Nc4ccnc5cc(Cl)ccc45)cc3)=NN2C=O)cc(OC)c1OC (stereo unspecified) and reply at your convenience. middle
